Record form. Attribute: normalized growth. Fill in for each entry.
# PROTOCOL: chemical genetic growth profiling, strain panel (AID 1159580);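 note: tested at 20 µM; growth read once vehicle control cultures reached saturation at 30 °C; 1 = growth at the plate median or of vehicle wells; lower values mean less growth of the strain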
# SETTINGS: S. cerevisiae deletion strains, growth OD, locus YBR279W, strain paf1, stronger effect = lower value
The whole screen tested about 5,500 compounds, of which about 2,000 (36%) were called active. Inconclusive results (about 18%) are left out. Some of the results follow.
One number for each entry.

These recorded examples may help you get a feel for the data.
{"COMPOUND": "Nc1ccc(C(=O)O)cc1", "normalized growth": 1.02}
{"COMPOUND": "CC(C)CCCC(C)[C@H]1CCC2C3CC=C4CC(=O)CC[C@]4(C)C3CC[C@@]21C (some centres undefined)", "normalized growth": 1}
{"COMPOUND": "CC(C)CCCC(C)C1CCC2C3=CC[C@H]4C[C@@H](O)CC[C@]4(C)C3CC[C@@]21C (some centres undefined)", "normalized growth": 0.991}
{"COMPOUND": "CC(C)CCCC(C)C1CCC2C3CC(=O)[C@H]4C[C@@H](O)CC[C@]4(C)C3CC[C@]12C (some centres undefined)", "normalized growth": 1.01}
{"COMPOUND": "CN[C@@H]1[C@H](O)[C@H](NC)[C@H]2O[C@@]3(O)C(=O)C[C@@H](C)O[C@H]3O[C@@H]2[C@H]1O", "normalized growth": 0.988}

Look at each compound and report its normalized growth.
1. COc1ccc([C@@H]2CC(=O)c3c(O)cc(O[C@@H]4O[C@H](CO[C@H]5O[C@@H](C)[C@H](O)[C@@H](O)[C@H]5O)[C@@H](O)[C@H](O)[C@H]4O)cc3O2)cc1O
2. CC(C)(C)NCC(O)c1ccc(O)c(CO)c1 (centres undefined)

1: 0.986; 2: 1.01

Look at each compound and report its normalized growth.
1. CC(CCc1ccccc1)NCC(O)c1ccc(O)c(C(N)=O)c1 (centres undefined)
2. CC(C)CCCC(C)C1CCC2C3C[C@@H](O)[C@@]4(O)C[C@@H](O)CC[C@]4(C)C3CC[C@]12C (some centres undefined)

1. 1
2. 1.03

* * *

# PROTOCOL: chemical genetic growth profiling, strain panel (AID 1159580);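 note: tested at 20 µM; growth read once vehicle control cultures reached saturation at 30 °C; 1 = growth at the plate median or of vehicle wells; lower values mean less growth of the strain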
# SETTINGS: S. cerevisiae deletion strains, growth OD, locus YOL147C, strain pex11, stronger effect = lower value
Hit rate of the full screen: of about 5,500 compounds, about 2,000 (36%) were called active. Roughly 18% stayed inconclusive and do not appear here. Some of the results follow.
Record form. Attribute: normalized growth. Fill in for each entry.
Answers are plain numbers.

These recorded examples may help you get a feel for the data.
{"MOLECULE": "CC(C)CCCC(C)C1CC[C@@]2(C)C3=C(CC[C@]12C)[C@@]1(C)CC[C@H](O)C(C)(C)C1CC3 (stereo not given in full)", "normalized growth": 0.989}
{"MOLECULE": "CC(N=C(NC#N)Nc1ccncc1)C(C)(C)C (stereo not given)", "normalized growth": 1.01}

Look at each molecule and report its normalized growth.
1. C=C(C)C1CCC(C)(O)C2CC3OC3(C)C2C1 (stereo not given)
2. Cc1c(C)c2c(c(C)c1O)CCC(C)(CCCC(C)CCCC(C)CCCC(C)C)O2 (stereo not given)
3. CC(C)=CCCC(C)C1CC[C@@]2(C)C3=C(CC[C@]12C)C1(C)CC[C@H](O)C(C)(C)C1CC3 (stereo not given in full)

1.01
0.997
1.04
